ASSAY_TEXT: RCMB18 cell growth, single agent and combined, cisplatin and BGB IC40 combos (AID 1671462);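 also: cells exposed to compound for four days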
DETAILS: RCMB18 medulloblastoma cells, measured here: BGB IC40 combination, at 0.05 µM, stronger effect = higher value
EXPERIMENTAL_ENDPOINT: inhibition (%)

{"SMILES_STR": "CCN1CCN(c2cc3c(cc2F)c(=O)c(C(=O)O)cn3C2CC2)CC1", "NUMERIC_VALUE": -24.4}
{"SMILES_STR": "O=c1oc2c(O)c(O)cc3c(=O)oc4c(O)c(O)cc1c4c23", "NUMERIC_VALUE": -24.9}
{"SMILES_STR": "Cc1oncc1C(=O)Nc1ccc(C(F)(F)F)cc1", "NUMERIC_VALUE": -20.4}
{"SMILES_STR": "Nc1nc2c(ncn2COC(CO)CO)c(=O)[nH]1", "NUMERIC_VALUE": 12.8}
{"SMILES_STR": "O=c1c(O)c(-c2ccc(O)c(O)c2)oc2cc(O)cc(O)c12", "NUMERIC_VALUE": 7.33}
{"SMILES_STR": "Cc1nc2ccc(CN(C)c3ccc(C(=O)N[C@@H](CCC(=O)O)C(=O)O)s3)cc2c(=O)[nH]1", "NUMERIC_VALUE": -41.8}
{"SMILES_STR": "O=NN(CCCl)C(=O)NCCCl", "NUMERIC_VALUE": -34.5}
{"SMILES_STR": "NC(=O)NO", "NUMERIC_VALUE": -13.6}
{"SMILES_STR": "Nc1[nH]c(=O)ncc1F", "NUMERIC_VALUE": -1.76}
{"SMILES_STR": "CCn1cc(C(=O)O)c(=O)c2cc3c(cc21)OCO3", "NUMERIC_VALUE": -11.1}
{"SMILES_STR": "C[C@H]1COc2c(C3(N)CC3)c(F)cc3c(=O)c(C(=O)O)cn1c23", "NUMERIC_VALUE": -11.8}

###

ASSAY_TEXT: EMT-state selective cytotoxicity in co-culture – imaging, PC-3E GFP, TEM4-18 mCherry, primary screen (AID 1345086);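 also: cells exposed to compound for 72 h before imaging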
DETAILS: PC-3E GFP / TEM4-18 mCherry co-culture, imaging cell counts; measured here: epithelial PC-3E GFP cell survival; at 1 µM
EXPERIMENTAL_ENDPOINT: normalised cell number

{"COMPOUND": "O=C(CCNNC(=O)c1ccncc1)NCc1ccccc1", "EXPERIMENTAL_ENDPOINT": "normalised cell number", "RESULT": 1.02}
{"COMPOUND": "NC(=NCCCCCCN=C(N)/N=C(\\N)Nc1ccc(Cl)cc1)/N=C(\\N)Nc1ccc(Cl)cc1", "EXPERIMENTAL_ENDPOINT": "normalised cell number", "RESULT": 0.89}
{"COMPOUND": "CCCCCN(C)CCC(O)(P(=O)(O)O)P(=O)(O)O", "EXPERIMENTAL_ENDPOINT": "normalised cell number", "RESULT": 0.86}
{"COMPOUND": "O=C1CCc2cc(OCCCCc3nnnn3C3CCCCC3)ccc2N1", "EXPERIMENTAL_ENDPOINT": "normalised cell number", "RESULT": 0.86}
{"COMPOUND": "Cc1nc2n(c(=O)c1CCN1CCC(c3noc4cc(F)ccc34)CC1)CCCC2", "EXPERIMENTAL_ENDPOINT": "normalised cell number", "RESULT": 1.02}
{"COMPOUND": "COc1ccc(CCN2CCC(Nc3nc4ccccc4n3Cc3ccc(F)cc3)CC2)cc1", "EXPERIMENTAL_ENDPOINT": "normalised cell number", "RESULT": 1.09}
{"COMPOUND": "Cc1cc(=O)n(-c2ccccc2)n1C", "EXPERIMENTAL_ENDPOINT": "normalised cell number", "RESULT": 1.24}
{"COMPOUND": "Cc1cc2c(C(C)C)c(O)c(O)c(C=O)c2c(O)c1-c1c(C)cc2c(C(C)C)c(O)c(O)c(C=O)c2c1O", "EXPERIMENTAL_ENDPOINT": "normalised cell number", "RESULT": 1.04}
{"COMPOUND": "CCOC(=O)c1ncn2c1CN(C)C(=O)c1cc(F)ccc1-2", "EXPERIMENTAL_ENDPOINT": "normalised cell number", "RESULT": 0.95}
{"COMPOUND": "O=C(O)CCNC(=O)c1ccc(N=Nc2ccc(O)c(C(=O)O)c2)cc1", "EXPERIMENTAL_ENDPOINT": "normalised cell number", "RESULT": 1.19}
{"COMPOUND": "COC(=O)Nc1nc2ccc(S(=O)c3ccccc3)cc2[nH]1 (centres undefined)", "EXPERIMENTAL_ENDPOINT": "normalised cell number", "RESULT": 0.97}
{"COMPOUND": "CC(=O)Oc1cccc2c1C(=O)c1c(OC(C)=O)cc(C(=O)O)cc1C2=O", "EXPERIMENTAL_ENDPOINT": "normalised cell number", "RESULT": 1.07}
{"COMPOUND": "CC(C)NCC(O)COc1ccc(COCCOC(C)C)cc1 (centres undefined)", "EXPERIMENTAL_ENDPOINT": "normalised cell number", "RESULT": 1.05}
{"COMPOUND": "CCn1cc(C(=O)O)c(=O)c2cnc(N3CCCC3)nc21", "EXPERIMENTAL_ENDPOINT": "normalised cell number", "RESULT": 1}
{"COMPOUND": "CC(=O)Oc1ccc(C(c2ccc(OC(C)=O)cc2)c2ccccn2)cc1", "EXPERIMENTAL_ENDPOINT": "normalised cell number", "RESULT": 1.24}
{"COMPOUND": "CCOc1ccc(Cc2nccc3cc(OCC)c(OCC)cc23)cc1OCC", "EXPERIMENTAL_ENDPOINT": "normalised cell number", "RESULT": 1}
{"COMPOUND": "COc1ccc2[nH]cc(CCNC(C)=O)c2c1", "EXPERIMENTAL_ENDPOINT": "normalised cell number", "RESULT": 0.84}
{"COMPOUND": "O=C1c2c(O)cccc2Cc2cccc(O)c21", "EXPERIMENTAL_ENDPOINT": "normalised cell number", "RESULT": 1.25}
{"COMPOUND": "CO[C@]12C[C@@H](COC(=O)c3cncc(Br)c3)CN(C)[C@@H]1Cc1cn(C)c3cccc2c13", "EXPERIMENTAL_ENDPOINT": "normalised cell number", "RESULT": 0.95}
{"COMPOUND": "CCOc1ccc2nc3cc(N)ccc3c(N)c2c1", "EXPERIMENTAL_ENDPOINT": "normalised cell number", "RESULT": 0.62}
{"COMPOUND": "Nc1ccc(O)c(C(=O)O)c1", "EXPERIMENTAL_ENDPOINT": "normalised cell number", "RESULT": 1.04}
{"COMPOUND": "CCn1cc(C(=O)O)c(=O)c2cc(F)c(N3CCNCC3)nc21", "EXPERIMENTAL_ENDPOINT": "normalised cell number", "RESULT": 0.89}
{"COMPOUND": "NC(=O)N/N=C/c1ccc([N+](=O)[O-])o1", "EXPERIMENTAL_ENDPOINT": "normalised cell number", "RESULT": 0.55}
{"COMPOUND": "C[C@](N)(Cc1ccc(O)cc1)C(=O)O", "EXPERIMENTAL_ENDPOINT": "normalised cell number", "RESULT": 1.18}

###

STUDY_SYSTEM: Mitogen-activated protein kinase 7 (Homo sapiens) (UniProt Q13164)
Sequence (Q13164 whole entry, looked up, the tested form may be a part): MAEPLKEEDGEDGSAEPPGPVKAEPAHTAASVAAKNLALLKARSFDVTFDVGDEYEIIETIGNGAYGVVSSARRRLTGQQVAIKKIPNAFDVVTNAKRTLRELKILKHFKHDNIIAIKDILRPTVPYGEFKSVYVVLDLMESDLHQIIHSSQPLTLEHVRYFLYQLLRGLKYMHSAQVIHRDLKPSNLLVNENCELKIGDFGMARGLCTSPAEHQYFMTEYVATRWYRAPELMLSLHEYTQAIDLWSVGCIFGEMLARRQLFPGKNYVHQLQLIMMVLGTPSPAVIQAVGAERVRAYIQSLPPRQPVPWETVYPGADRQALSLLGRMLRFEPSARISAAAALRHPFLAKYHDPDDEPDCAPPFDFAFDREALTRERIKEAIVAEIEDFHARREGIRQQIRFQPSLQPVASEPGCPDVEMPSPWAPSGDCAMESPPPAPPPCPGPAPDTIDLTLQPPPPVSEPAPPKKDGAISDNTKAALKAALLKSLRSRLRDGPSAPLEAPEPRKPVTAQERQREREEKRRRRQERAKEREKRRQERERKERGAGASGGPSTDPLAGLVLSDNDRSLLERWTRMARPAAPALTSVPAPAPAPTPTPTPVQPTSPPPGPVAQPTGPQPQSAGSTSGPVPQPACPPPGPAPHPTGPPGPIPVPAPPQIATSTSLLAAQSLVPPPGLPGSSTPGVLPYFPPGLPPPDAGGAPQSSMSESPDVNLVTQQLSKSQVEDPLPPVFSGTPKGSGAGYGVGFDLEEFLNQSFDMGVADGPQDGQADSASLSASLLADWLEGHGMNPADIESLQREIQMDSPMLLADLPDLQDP
ASSAY_TEXT: Gal4-ERK5 driven luciferase induction – cell-based, HTS, primary screen (AID 1508626);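 also: luciferase driven by Gal4-ERK5 fusion binding five Gal4 sites before minimal TATA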
DETAILS: HeLa Gal4-ERK5 transactivation, 18 h, at 5 µM
The source made the active and inactive calls.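 How the source made its calls: active means luciferase signal above three times the same-plate solvent-only control wells; inactive means the rest.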
Labels: True (active), False (inactive)

{"COMPOUND": "C[N+]1(C)[C@@H]2CC(OC(=O)[C@H](CO)c3ccccc3)C[C@H]1[C@@H]1O[C@@H]12 (stereo not given in full)", "LABEL_CLASS": "False"}
{"COMPOUND": "Oc1c(Br)cc(Br)c2cccnc12", "LABEL_CLASS": "False"}
{"COMPOUND": "c1ccc(CN(CC2=NCCN2)c2ccccc2)cc1", "LABEL_CLASS": "False"}
{"COMPOUND": "CC(N)C(=O)OC(C)(C)Cc1ccc(Cl)cc1 (stereo not given)", "LABEL_CLASS": "False"}
{"COMPOUND": "Cc1ccc(S(=O)(=O)NC(=O)NN2CC3CCCC3C2)cc1 (stereo not given)", "LABEL_CLASS": "False"}
{"COMPOUND": "COc1cc([C@H]2Oc3cc([C@H]4Oc5cc(O)cc(O)c5C(=O)[C@@H]4O)ccc3O[C@@H]2CO)ccc1O", "LABEL_CLASS": "False"}
{"COMPOUND": "CC[N+](CC)(CC)CCOc1cccc(OCC[N+](CC)(CC)CC)c1OCC[N+](CC)(CC)CC", "LABEL_CLASS": "True"}
{"COMPOUND": "CO[C@@]12[C@H](COC(N)=O)C3=C(C(=O)C(C)=C(N)C3=O)N1C[C@@H]1N[C@@H]12", "LABEL_CLASS": "False"}
{"COMPOUND": "CC1(C)S[C@@H]2[C@H](NC(=O)C(C(=O)O)c3ccccc3)C(=O)N2[C@H]1C(=O)O (stereo not given in full)", "LABEL_CLASS": "False"}
{"COMPOUND": "C[C@H](N)[C@H](O)c1cccc(O)c1", "LABEL_CLASS": "False"}
{"COMPOUND": "Clc1ccc(C(c2ccccc2Cl)C(Cl)Cl)cc1 (stereo not given)", "LABEL_CLASS": "False"}
{"COMPOUND": "Cc1cc(C)nc(NS(=O)(=O)c2ccc(N)cc2)n1", "LABEL_CLASS": "False"}
{"COMPOUND": "CCC1(C)CC(=O)NC1=O (stereo not given)", "LABEL_CLASS": "False"}
{"COMPOUND": "CCN(CC)CCOCCOC(=O)C1(c2ccccc2)CCCC1", "LABEL_CLASS": "False"}
{"COMPOUND": "O=C(O)CN1C(=O)c2cccc3cccc(c23)C1=O", "LABEL_CLASS": "False"}
{"COMPOUND": "COc1cc(C(=O)NCc2ccc(OCCN(C)C)cc2)cc(OC)c1OC", "LABEL_CLASS": "False"}
{"COMPOUND": "CCN(CCCc1ccccc1)CCCc1ccccc1", "LABEL_CLASS": "False"}
{"COMPOUND": "Cc1c(N(C)C)c(=O)n(-c2ccccc2)n1C", "LABEL_CLASS": "False"}
{"COMPOUND": "CN1CCN(C2=Nc3ccccc3Oc3ccc(Cl)cc32)CC1", "LABEL_CLASS": "False"}
{"COMPOUND": "CN1CCOC(c2ccccc2)c2ccccc2C1 (stereo not given)", "LABEL_CLASS": "False"}
{"COMPOUND": "OCc1ccccc1O", "LABEL_CLASS": "False"}
{"COMPOUND": "COc1ccccc1OCC(O)CO (stereo not given)", "LABEL_CLASS": "False"}
{"COMPOUND": "CN1CCC(=C2c3ccccc3Sc3ccccc32)CC1", "LABEL_CLASS": "False"}
{"COMPOUND": "O=C(CCNNC(=O)c1ccncc1)NCc1ccccc1", "LABEL_CLASS": "False"}
{"COMPOUND": "CCOC(N)=O", "LABEL_CLASS": "False"}
